Tested on: HCMV (strain AD169)
Test: Inhibition of HCMV replication, plaque reduction assay (PRA, Hs-68 cells)
Format: cell-based, Human Cytomegalovirus (HCMV)
Conditions: Human betaherpesvirus 5, AD169, Hs68, Group 1 Table 6 entries, read-out: PRA CMV EC50
Each entry below carries its reported EC50.
measurement.kind: EC50 (µM)

compound.structure.string	measurement.kind	measurement.unit	sign.qualifier	numeric.readout
Nc1nc(-c2ccc(NC(=O)[C@H]3CCC(=O)N3Cc3ccccc3)cc2)cs1	EC50	µM	=	80
Nc1nc(-c2ccc(NC(=O)[C@H]3CCCN3C(=O)C3CCCCC3)cc2)cs1	EC50	µM	=	48
Nc1nc(-c2ccc(NC(=O)[C@@H]3CCCN3C(=O)c3ccccc3)cc2)cs1	EC50	µM	>	89
Nc1nc(-c2ccc(NC(=O)[C@H]3CCC(=O)N3CC3CCCCC3)cc2)cs1	EC50	µM	=	45
Nc1nc(-c2ccc(NC(=O)[C@H]3CCCN3C(=O)c3ccccc3)cc2)cs1	EC50	µM	>	88
Nc1nc(-c2ccc(NC(=O)[C@@H]3CCC(=O)N3Cc3ccccc3)cc2)cs1	EC50	µM	=	50
Nc1nc(-c2ccc(NC(=O)[C@@H]3CCCN3C(=O)C3CCCCC3)cc2)cs1	EC50	µM	=	22
CC(C)(C)OC(=O)N1CCC[C@@H]1C(=O)Nc1ccc(-c2csc(N)n2)cc1	EC50	µM	>	83
